The values you see were collected from PubChem BioAssay.

Entries and their z-score values follow.
experiment: splicing luciferase reporter signal modulators, primary screen, spliceosome inhibition project, cell-based, HEK293, splice +/- reporter (AID 1101); settings: luminescence, 24 h, higher = more signal, called active from +8 up or from −8 down;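 also: HEK293 cells carrying a splicing-competent luciferase reporter gene; test concentration not given here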
reportedEndpoint: z-score

compound="N#Cc1ccc(NN2C(C(O)c3ccc(I)cc3)C=CC3C(=O)N(c4ccccc4)C(=O)C32)cc1 (configuration not stated)" reportedendpoint=z-score valuemeasured=2.17
compound="C=CCC(OC(C)=O)[C@@H]1[C@@H](N(Cc2cc3ccccc3o2)C(=O)Cc2ccc(F)cc2)c2cc(OCCCO)ccc2N1C(=O)c1ccc(-c2ccccc2)cc1 (some centres not stated)" reportedendpoint=z-score valuemeasured=-1.05
compound=COCCOC(=O)N1C(=O)[C@@]2(c3cc(C#CCC(C(=O)OC)C(=O)OC)ccc31)[C@H](c1ccccc1OCCO)N1[C@H](c3ccccc3)[C@H](c3ccccc3)OC(=O)[C@H]1[C@@H]2C(=O)N1CCCCCCC1 reportedendpoint=z-score valuemeasured=-0.247
compound=COc1cc([C@@H]2N[C@H](C(=O)O)Cc3c2[nH]c2ccccc32)cc(OC)c1OC reportedendpoint=z-score valuemeasured=-0.526
compound=C=C(COC)/C(=C/C[C@@H](OC(C)=O)c1cccc(OCCO)c1)c1cc(C(=O)OC)ccc1OC reportedendpoint=z-score valuemeasured=-0.964
compound=COCC(=C=CC[C@H](O)c1ccc(OCCO)cc1)C[C@H](O)c1ccccn1 reportedendpoint=z-score valuemeasured=0.0572
compound=C[C@@H]1CC[C@H]2C(=O)N3[C@@H](CC[C@@H](C)[C@@H]3c3cccc(N4CCOCC4)c3)C(=O)N2[C@H]1c1cccc(Br)c1 reportedendpoint=z-score valuemeasured=0.0479

----------
target: Torsin-1A (Homo sapiens); assay: torsin A binders from cell lysate, primary screen, small-molecule microarray, wild-type, 635/667 nm (AID 1149); conditions: COS7 hTOR1A-WT lysate, 635 nm fluorescence, higher = more signal
Kindly note that classification relies on composite z-score with these boundaries: low-valued (below 0.07), mid-valued (0.07 to below 0.6), high-valued (0.6 or more)

compound=O=C1O[C@H](c2ccccc2)[C@H](c2ccccc2)N2[C@H]1[C@@H](C(=O)Nc1nc3ccccc3s1)[C@]1(C(=O)Nc3ccc(C#CC4(O)CCCCCC4)cc31)[C@H]2c1ccc(O)cc1 targetentity="Torsin-1A (Homo sapiens)" grouplabel=mid-valued
compound=C[C@@H]1C=CCC(=O)OC[C@H]2O[C@@H](C=C[C@@H]2O)[C@H](C)C=CCC(=O)OC[C@H]2O[C@H]1C=C[C@@H]2O targetentity="Torsin-1A (Homo sapiens)" grouplabel=high-valued
compound=C[N+](C)(C)CCCC[C@@H]1NC(=O)[C@H]2C[C@@H](C(=O)NCc3ccc(F)cc3)[C@@H](c3cccc(OCCO)c3)N2C1=O targetentity="Torsin-1A (Homo sapiens)" grouplabel=mid-valued
compound=COCCOC(=O)N1C(=O)[C@@]2(c3cc(C#CC4=CCCCC4)ccc31)[C@H](C(=O)NC[C@H](O)c1ccccc1)[C@H]1C(=O)O[C@H](c3ccccc3)[C@H](c3ccccc3)N1[C@@H]2c1ccc(OCCO)cc1 targetentity="Torsin-1A (Homo sapiens)" grouplabel=mid-valued
compound=CC(C)C[C@@H]1NC(=O)[C@H]2C[C@@H](C(=O)NCCCCCC[N+](C)(C)C)[C@@H](c3ccc(O)cc3)N2C1=O targetentity="Torsin-1A (Homo sapiens)" grouplabel=high-valued
compound=COC(=O)C(CC#Cc1ccc2c(c1)[C@]1(C(=O)N2)[C@H](C(=O)N2CCCCCCC2)[C@H]2C(=O)O[C@H](c3ccccc3)[C@H](c3ccccc3)N2[C@@H]1c1ccc(O)cc1)C(=O)OC targetentity="Torsin-1A (Homo sapiens)" grouplabel=low-valued
compound=CN(C)C(=O)[C@@]1(Cc2ccccc2N=[N+]=[N-])N=C(c2ccc(OCCCO)cc2)O[C@H]1c1ccccc1CN=[N+]=[N-] targetentity="Torsin-1A (Homo sapiens)" grouplabel=mid-valued
compound=C=C(COC)/C(=C/C[C@@H](OC(C)=O)c1cccc(OCCO)c1)c1cc(C(=O)OC)ccc1OC targetentity="Torsin-1A (Homo sapiens)" grouplabel=mid-valued
compound="O=C1OCC=C[C@H]2OC34C=CCN(Cc5ccccc5)C(=O)[C@H]3N(CCO)C(=O)[C@@H]4[C@@H]12 (some centres undefined)" targetentity="Torsin-1A (Homo sapiens)" grouplabel=low-valued
compound=C[C@H]1COC(=O)[C@@H]2CCCN2C(=O)[C@@H](C)COC(=O)[C@@H]2CCCN2C1=O targetentity="Torsin-1A (Homo sapiens)" grouplabel=low-valued
compound=CC/C=C/C(=O)N(C[C@@H]1CCCO1)[C@@H]1CC(C(=O)NCCO)=C[C@H](Oc2c(I)cc(CO)cc2OC)[C@H]1O targetentity="Torsin-1A (Homo sapiens)" grouplabel=mid-valued
compound=C[N+](C)(C)CCCCNC(=O)[C@@H]1C[C@@H]2C(=O)N3CCC[C@H]3C(=O)N2[C@@H]1c1cccc(OCCO)c1 targetentity="Torsin-1A (Homo sapiens)" grouplabel=high-valued
